- systemTested: T1, hMC3-R (human, UniProt P41968 1-323)
- T1 construct: whole, on cells; Assayed as membranes of CHO-K1 cells expressing the receptor; also called hMC-R receptor subtype 3; melacortin-3 (MC3-R)
- T1 sequence (P41968 whole entry): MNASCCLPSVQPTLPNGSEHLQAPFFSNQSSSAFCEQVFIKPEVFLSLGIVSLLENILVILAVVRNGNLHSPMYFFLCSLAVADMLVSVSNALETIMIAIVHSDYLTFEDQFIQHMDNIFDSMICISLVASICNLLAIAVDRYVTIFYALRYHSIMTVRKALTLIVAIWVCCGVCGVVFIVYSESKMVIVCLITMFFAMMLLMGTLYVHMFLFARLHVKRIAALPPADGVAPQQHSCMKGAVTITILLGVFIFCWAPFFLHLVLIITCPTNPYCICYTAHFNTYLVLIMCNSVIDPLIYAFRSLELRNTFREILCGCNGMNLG
- assaySummary: competition with [125I]-NDP-α-MSH, CHO-K1 membranes
Bridge positions count the residues as written; N and C are the ends. Square brackets hold non-standard residues; d marks the D form. Nle = CCCC[C@H](N)C(=O)O; Ava = NCCCCC(=O)O; GABA = NCCCC(=O)O; βAla = NCCC(=O)O
We begin with a simple list: items and their reported Ki.
Supply the numeric figure in nM, leaving out any unit text.

Consider the worked cases shown below.
# binder, endpointUnit, Ki
rows = [
    ("Ac-[Nle]C[dV]H[dF]RWC-NH2 (disulfide 2-8) [Ac-Nle-c(Cys-D-Val-His-D-Phe-Arg-Trp-Cys)-NH2]", "nM", 104),
    ("Ac-[Nle]CHFR[dW][GABA]C-NH2 (disulfide 2-8, Phe 4 is the L form here) [Ac-Nle-c(Cys-His-Phe-Arg-D-Trp-Gaba-Cys)-NH2]", "nM", 150),
    ("Ac-[Nle]CH[dF]RW[Ava]C-NH2 (disulfide 2-8; SMILES CCCC[C@H](NC(C)=O)C(=O)N[C@H]1CSSC[C@@H](C(N)=O)NC(=O)CCCCNC(=O)[C@H](Cc2c[nH]c3ccccc23)NC(=O)[C@H](CCCNC(=N)N)NC(=O)[C@@H](Cc2ccccc2)NC(=O)[C@H](Cc2c[nH]cn2)NC1=O) [Ac-Nle-c(Cys-His-D-Phe-Arg-Trp-Apn-Cys)-NH2]", "nM", 9.33),
]

Please report the recorded Ki for Ac-[Nle]CH[dF]R[dW][βAla]C-NH2 (disulfide 2-8; SMILES CCCC[C@H](NC(C)=O)C(=O)N[C@H]1CSSC[C@@H](C(N)=O)NC(=O)CCNC(=O)[C@@H](Cc2c[nH]c3ccccc23)NC(=O)[C@H](CCCNC(=N)N)NC(=O)[C@@H](Cc2ccccc2)NC(=O)[C@H](Cc2c[nH]cn2)NC1=O) [Ac-Nle-c(Cys-His-D-Phe-Arg-D-Trp-β-Ala-Cys)-NH2] .
14.1
